# TGI listing for each entry below
# Test system: TK-10 renal
# TEST: NCI tumour cell line growth inhibition, 48 h
ASSAY READOUT: TGI (µM)

>  <COMPOUND>
O=C1OC(=O)C2C3CCC(O3)C12 (stereo unspecified)

>  <MEASUREMENT QUALIFIER>
>

>  <ENDPOINT VALUE>
100

$$$$
>  <COMPOUND>
CS(=O)(=O)c1ccc(C(F)(F)F)cc1NC(=O)Nc1cnc(Oc2ccc(-c3cc(Cl)cnc3N)cc2)nc1

>  <MEASUREMENT QUALIFIER>
=

>  <ENDPOINT VALUE>
6.92

$$$$
>  <COMPOUND>
Cc1cccc(NC(=O)CC2C(=O)Nc3ccccc3S2(=O)=O)c1C (stereo unspecified)

>  <MEASUREMENT QUALIFIER>
=

>  <ENDPOINT VALUE>
79.5

$$$$
>  <COMPOUND>
CS(=O)(=O)C(=Cc1ccccc1Cl)S(C)(=O)=O

>  <MEASUREMENT QUALIFIER>
>

>  <ENDPOINT VALUE>
100

$$$$
>  <COMPOUND>
Clc1ccc2c(NCCCN3CCN(c4nc(-n5ccnc5)nc5ccccc45)CC3)ccnc2c1

>  <MEASUREMENT QUALIFIER>
=

>  <ENDPOINT VALUE>
3.39

$$$$
>  <COMPOUND>
CC1=NN(C(=O)c2ccc(Cl)cc2)C(=O)/C1=C/c1cccc(O)c1

>  <MEASUREMENT QUALIFIER>
>

>  <ENDPOINT VALUE>
100

$$$$
>  <COMPOUND>
CCC(C)(C)NC1=C(NC(C)=O)C(=O)c2ccccc2C1=O

>  <MEASUREMENT QUALIFIER>
>

>  <ENDPOINT VALUE>
75

$$$$
>  <COMPOUND>
O=C1/C(=C\c2ccccc2)c2ccccc2N1Cc1ccccc1

>  <MEASUREMENT QUALIFIER>
=

>  <ENDPOINT VALUE>
17.4

$$$$
>  <COMPOUND>
O=C(O)/C(=C\c1ccccc1)Cc1ccccc1

>  <MEASUREMENT QUALIFIER>
>

>  <ENDPOINT VALUE>
100

$$$$
>  <COMPOUND>
CC1C(c2ccccc2O)c2cc3c(cc2OC1N1CCCC1)OCO3 (stereo unspecified)

>  <MEASUREMENT QUALIFIER>
>

>  <ENDPOINT VALUE>
100

$$$$
>  <COMPOUND>
O=C(c1cccs1)c1c(C(F)(F)F)n([O-])c2cc(F)c(F)cc2[n+]1=O

>  <MEASUREMENT QUALIFIER>
=

>  <ENDPOINT VALUE>
3.99

$$$$
